For each of the binders below, state its OD450.
Target: T1, SARS-CoV-2 S1 protein NTD (N-terminal domain of spike protein of SARS-CoV-2) (SARS-CoV-2, UniProt P0DTC2 14-305)
T1 construct: also called S1-NTD; NTD of S1 subunit
Assay: ELISA, S1-NTD coated on the plate, antibody at one concentration, anti-human IgG-HRP
// print number alone

(Q) # return recorded OD450 for entry Antibody 12-11 (antibody, V domains shown) VH: QVQVVQSGAEVKKPGASVKVSCKVSGYTLIEISIHWVRQAPGKGLEWMGGFDPEAGETIYAQKFQGRVTMTEDTSTDTAYMEVSSLRSEDTAVYYCATGPAIAAAETNWFDLWGQGTLVTVSS VL: QSALTQPASVSGSPGQSITISCTGTSSDVGSYNYVSWYQQHPGKAPKLMIYDVTKRPSGVPDRFSGSKSGNTASLTISGLQAEDEADYYCSSYTSSSTWVFGGGTKLTVL
(A) 3.93

(Q) Using the record for Antibody 12-17 (antibody, V domains shown) VH: EVQLVESGGGLVKPGGSLRLSCAASGFTLNSYSMNWVRQAPGKGLEWVSSISSTSSDIYYADSVKGRFTISRDNAKNSVDLQMNSLRAEDTAVYYCATNGGAHRNTWSFYGMDVWGQGTTVTVSS VL: SYELTQPPSVSVSPGQTASITCSGDKLGDKYASWYQQKPGQSPVLVIYQDTKRPSGIPERFSGSNSGNTVTLTISGTQAMDEADYYCQAWDSSTGVFGGGTKLTVL , state its measured OD450.
(A) 3.95

(Q) State its OD450 for this binder: Antibody 13-17 (antibody, V domains shown) VH: QDQLVQSGAEVKKPGASVKVSCKVSGYTLPELSLHWVRQPPGKGLEWMGGFDPEDGETIYAQKFQGRVTMTEDTSTDTAYMELSSLRSEDTAVYYCAASTPMGGHTDWLDPWGQGTLVTVSS VL: QSVLTQPPSVSAAPGQKVTISCSGSSSNIGNNYVSWYQQLPGTAPKLLIYDNNKRPSGIPDRFSGSKSGTSATLGITGLQTGDEADYYCGTWDSSLSAGVFGGGTKLTVL
(A) 3.91
